# Target entity: GluA1/2 AMPA receptor subunits (flip isoform) (Homo sapiens, UniProt P42261+P42262)
# Construct: expressed in transfected cells; host or cells: HEK293
# Sequence (P42261 19-906 isoform P42261-2 limits assumed): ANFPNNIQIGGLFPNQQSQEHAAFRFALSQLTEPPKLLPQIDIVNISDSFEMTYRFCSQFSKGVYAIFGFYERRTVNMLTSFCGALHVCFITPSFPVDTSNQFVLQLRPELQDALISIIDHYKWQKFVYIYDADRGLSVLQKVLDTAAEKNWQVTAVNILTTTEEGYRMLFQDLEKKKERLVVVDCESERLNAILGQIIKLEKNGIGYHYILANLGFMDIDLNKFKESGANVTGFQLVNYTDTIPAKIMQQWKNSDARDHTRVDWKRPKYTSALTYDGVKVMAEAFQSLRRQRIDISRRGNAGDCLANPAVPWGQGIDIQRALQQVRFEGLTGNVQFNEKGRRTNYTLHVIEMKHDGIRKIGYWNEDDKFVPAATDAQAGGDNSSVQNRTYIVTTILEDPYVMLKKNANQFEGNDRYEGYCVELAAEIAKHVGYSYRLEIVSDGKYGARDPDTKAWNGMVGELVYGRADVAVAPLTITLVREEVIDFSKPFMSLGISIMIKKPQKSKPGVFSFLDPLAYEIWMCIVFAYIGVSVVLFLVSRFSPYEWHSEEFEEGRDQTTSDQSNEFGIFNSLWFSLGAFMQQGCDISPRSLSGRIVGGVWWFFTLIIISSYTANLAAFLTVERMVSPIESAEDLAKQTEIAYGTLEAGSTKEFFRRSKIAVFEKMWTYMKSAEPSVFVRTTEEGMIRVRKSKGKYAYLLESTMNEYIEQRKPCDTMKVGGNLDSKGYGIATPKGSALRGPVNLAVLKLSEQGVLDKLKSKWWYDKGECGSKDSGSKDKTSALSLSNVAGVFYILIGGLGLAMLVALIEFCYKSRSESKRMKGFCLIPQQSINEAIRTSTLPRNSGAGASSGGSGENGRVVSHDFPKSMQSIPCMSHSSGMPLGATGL
# Sequence (P42262 25-883 isoform P42262-2 limits assumed): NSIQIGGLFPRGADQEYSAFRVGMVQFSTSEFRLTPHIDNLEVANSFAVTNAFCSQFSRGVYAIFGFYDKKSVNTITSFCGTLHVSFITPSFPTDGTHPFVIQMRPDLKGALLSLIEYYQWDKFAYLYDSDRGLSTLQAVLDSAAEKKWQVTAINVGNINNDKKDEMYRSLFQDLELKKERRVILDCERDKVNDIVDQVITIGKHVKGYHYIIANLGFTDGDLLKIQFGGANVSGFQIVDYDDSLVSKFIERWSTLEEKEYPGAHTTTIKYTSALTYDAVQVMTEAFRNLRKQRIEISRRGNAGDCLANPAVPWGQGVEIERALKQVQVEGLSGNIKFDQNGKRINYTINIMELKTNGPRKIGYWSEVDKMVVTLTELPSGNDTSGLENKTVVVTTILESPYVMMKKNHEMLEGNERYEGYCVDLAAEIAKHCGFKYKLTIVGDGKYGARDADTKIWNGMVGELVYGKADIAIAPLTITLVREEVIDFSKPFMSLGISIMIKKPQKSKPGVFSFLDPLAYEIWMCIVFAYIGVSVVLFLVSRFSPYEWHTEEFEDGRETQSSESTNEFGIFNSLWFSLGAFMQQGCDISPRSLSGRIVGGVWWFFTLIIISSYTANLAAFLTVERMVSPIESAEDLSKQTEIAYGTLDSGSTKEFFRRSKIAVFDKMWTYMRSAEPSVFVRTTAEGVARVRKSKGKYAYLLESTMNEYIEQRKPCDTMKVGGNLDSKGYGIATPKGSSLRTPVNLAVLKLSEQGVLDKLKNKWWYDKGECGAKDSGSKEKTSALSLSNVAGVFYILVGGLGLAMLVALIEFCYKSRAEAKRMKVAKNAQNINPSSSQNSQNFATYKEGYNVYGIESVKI
# Assay notes: Whole-cell patch-clamp electrophysiology, heteromeric GluA1/2 expressed in HEK293 cells
# Assay type: cell-based
# Condition label: 10 mM glutamate, 12 µM compound, n = 10
# Method: Up to 20 μg of high-copy plasmid DNA was prepared using the QIAGEN Plasmid Mini Kit, the tubes were then centrifuged to extract the supernatant containing the plasmid DNA, ethanol was used to wash the DNA pellet, then centrifuged again and the supernatant was carefully removed as to not disturb the pellet, finally, the pellet was air-dried, and the DNA was re-dissolved in a suitable volume of buffer, (our prior study detailed the whole DNA preparation data). […]
Observed property: A/AI (current with glutamate alone / current with glutamate + compound)

O=C(CCCCC1CCSS1)OCCCO[N+](=O)[O-] (centres unmarked): 11.34
O=C(CCCCC1CCSS1)OCCCCCCO (centres unmarked) [LA4, 1-Hydroxy-6-Lipoester]: 7.70
O=C(O)CCCCC1CCSS1 (stereo not drawn) [α-LA, alpha-Lipoic acid, reference compound]: 9.13
O=C(CCCCC1CCSS1)OCCCCCCO[N+](=O)[O-] (centres unmarked): 8.05
O=C(CCCCC1CCSS1)OCCCO (centres unmarked) [LA1, 1-Hydroxy-3-Lipo Ester]: 10.32
